Would you mind telling me the reported self-splicing fitness (ln) of each entry?
# test description: self-splicing fitness, log relative to wild type (ln ratio); higher = more splicing; Tetrahymena group I intron in knt gene, E. coli kanamycin selection, DiMSum; sequences stand for … in CUCUCU…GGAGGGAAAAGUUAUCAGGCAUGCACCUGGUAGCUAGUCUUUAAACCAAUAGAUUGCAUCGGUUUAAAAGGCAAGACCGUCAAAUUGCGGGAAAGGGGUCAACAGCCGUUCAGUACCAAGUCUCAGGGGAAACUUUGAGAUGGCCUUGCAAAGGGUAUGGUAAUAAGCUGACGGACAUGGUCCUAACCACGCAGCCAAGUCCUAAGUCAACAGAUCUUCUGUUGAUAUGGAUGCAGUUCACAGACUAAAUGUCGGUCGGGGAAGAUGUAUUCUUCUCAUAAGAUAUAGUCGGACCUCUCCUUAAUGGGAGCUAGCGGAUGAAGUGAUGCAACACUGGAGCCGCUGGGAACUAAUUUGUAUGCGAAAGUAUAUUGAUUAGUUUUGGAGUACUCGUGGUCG;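 further: selection with 25 µg/mL kanamycin versus none on LB agar overnight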
# experimental conditions: 37 °C
Just the number, please.

Q. Note down self-splicing fitness (ln) recorded for UCCCAGCAAUAUUACGUUGA
A. 0.408

Q. Note down self-splicing fitness (ln) recorded for GCUAAGCAAUAUUACGUUGA
A. -0.945

Q. Note down self-splicing fitness (ln) recorded for UGCUAGCAAUAUUACGUUGG
A. -2.49

Q. Note down self-splicing fitness (ln) recorded for AGGCAGCAAUAUUACGCCCG
A. -0.431

* * *

# test description: self-splicing fitness, log relative to wild type (ln ratio); higher = more splicing; Tetrahymena group I intron in knt gene, E. coli kanamycin selection, DiMSum; sequences stand for … in CUCUCU…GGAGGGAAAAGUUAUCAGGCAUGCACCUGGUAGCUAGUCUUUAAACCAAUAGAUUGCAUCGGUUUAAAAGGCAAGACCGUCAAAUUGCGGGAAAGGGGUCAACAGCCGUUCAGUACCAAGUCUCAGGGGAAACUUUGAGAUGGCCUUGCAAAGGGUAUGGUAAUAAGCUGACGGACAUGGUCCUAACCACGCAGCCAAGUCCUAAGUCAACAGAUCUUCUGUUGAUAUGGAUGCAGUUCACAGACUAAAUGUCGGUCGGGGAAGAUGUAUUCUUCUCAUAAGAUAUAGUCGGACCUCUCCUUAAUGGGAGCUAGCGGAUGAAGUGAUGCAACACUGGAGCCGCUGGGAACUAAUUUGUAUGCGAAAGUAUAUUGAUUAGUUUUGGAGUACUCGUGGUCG
# experimental conditions: 37 °C
measure: self-splicing fitness (ln)
Just the number, please.

Q. Note down self-splicing fitness (ln) recorded for CGAUAGCAAUAUUACGAAUC
A. -3.08

Q. Note down self-splicing fitness (ln) recorded for UAGUAGCAAUAUUACGAGAU
A. -2.32

Q. Note down self-splicing fitness (ln) recorded for GUUGAGCAAUAUUACGAAUC
A. 0.505

Q. Note down self-splicing fitness (ln) recorded for ACUAAGCAAUAUUACGGGAA
A. -1.75

Q. Note down self-splicing fitness (ln) recorded for AAGGAGCAAUAUUACGUAAA
A. -0.663

Q. Note down self-splicing fitness (ln) recorded for UACAAGCAAUAUUACGGCCG
A. 0.427

Q. Note down self-splicing fitness (ln) recorded for GCUAAGCAAUAUUACGUCCU
A. 0.223

Q. Note down self-splicing fitness (ln) recorded for UCAGAGCAAUAUUACGGCCC
A. -0.0611

Q. Note down self-splicing fitness (ln) recorded for ACCGAGCAAUAUUACGGAAA
A. -2.5

Q. Note down self-splicing fitness (ln) recorded for CUCAAGCAAUAUUACGUAGG
A. -0.324

Q. Note down self-splicing fitness (ln) recorded for CCUUAGCAAUAUUACGAAUC
A. -1.38

Q. Note down self-splicing fitness (ln) recorded for GUUAAGCAAUAUUACGCCGC
A. -2.03

Q. Note down self-splicing fitness (ln) recorded for CAUAAGCAAUAUUACGUAUU
A. -3.09

Q. Note down self-splicing fitness (ln) recorded for CAGCAGCAAUAUUACGCACG
A. -0.264

Q. Note down self-splicing fitness (ln) recorded for ACUCAGCAAUAUUACGACAA
A. -1.18

Q. Note down self-splicing fitness (ln) recorded for AUACAGCAAUAUUACGAUCU
A. -0.0165

Q. Note down self-splicing fitness (ln) recorded for AAGCAGCAAUAUUACGCCCA
A. 0.244

Q. Note down self-splicing fitness (ln) recorded for CCCUAGCAAUAUUACGAUUU
A. -1.91

Q. Note down self-splicing fitness (ln) recorded for UAAUAGCAAUAUUACGAGGU
A. -2.65

Q. Note down self-splicing fitness (ln) recorded for UCAAAGCAAUAUUACGAUCA
A. -0.719

Q. Note down self-splicing fitness (ln) recorded for ACUAAGCAAUAUUACGCUAG
A. -1.82

Q. Note down self-splicing fitness (ln) recorded for GGCGAGCAAUAUUACGGUCA
A. -0.103

Q. Note down self-splicing fitness (ln) recorded for CUCGAGCAAUAUUACGCGCU
A. -2.69

Q. Note down self-splicing fitness (ln) recorded for UUUAAGCAAUAUUACGAAGA
A. -1.33

Q. Note down self-splicing fitness (ln) recorded for UGCCAGCAAUAUUACGUCCC
A. -1.71

Q. Note down self-splicing fitness (ln) recorded for UCCAAGCAAUAUUACGACGG
A. 0.164

Q. Note down self-splicing fitness (ln) recorded for GAGCAGCAAUAUUACGGUGG
A. -2.31

Q. Note down self-splicing fitness (ln) recorded for CGUAAGCAAUAUUACGUAAA
A. -2.1

Q. Note down self-splicing fitness (ln) recorded for CACGAGCAAUAUUACGGCAC
A. -2.43

Q. Note down self-splicing fitness (ln) recorded for GAUUAGCAAUAUUACGAAUA
A. -0.71

Q. Note down self-splicing fitness (ln) recorded for CAACAGCAAUAUUACGUCCU
A. -1.6

Q. Note down self-splicing fitness (ln) recorded for AUCGAGCAAUAUUACGUCGA
A. -2.03

Q. Note down self-splicing fitness (ln) recorded for CGUCAGCAAUAUUACGGCUG
A. -1.24

Q. Note down self-splicing fitness (ln) recorded for ACCAAGCAAUAUUACGUAGG
A. -2.03

Q. Note down self-splicing fitness (ln) recorded for UAACAGCAAUAUUACGUGUA
A. -0.0928

Q. Note down self-splicing fitness (ln) recorded for ACGUAGCAAUAUUACGAGGU
A. -2.02

Q. Note down self-splicing fitness (ln) recorded for CCAAAGCAAUAUUACGAUGG
A. -2.29

Q. Note down self-splicing fitness (ln) recorded for UUUGAGCAAUAUUACGGUUA
A. -1.57

Q. Note down self-splicing fitness (ln) recorded for ACCGAGCAAUAUUACGGUAG
A. -2.73

Q. Note down self-splicing fitness (ln) recorded for GGCAAGCAAUAUUACGCUAU
A. -1.13

Q. Note down self-splicing fitness (ln) recorded for AUCGAGCAAUAUUACGAGAG
A. -1.14

Q. Note down self-splicing fitness (ln) recorded for AUUGAGCAAUAUUACGCGAC
A. -1.2

Q. Note down self-splicing fitness (ln) recorded for GCACAGCAAUAUUACGGUCA
A. -0.276

Q. Note down self-splicing fitness (ln) recorded for UGACAGCAAUAUUACGCACA
A. 0.528

Q. Note down self-splicing fitness (ln) recorded for GUGAAGCAAUAUUACGGAUA
A. -1.13

Q. Note down self-splicing fitness (ln) recorded for UUCGAGCAAUAUUACGGUCU
A. -5.45

Q. Note down self-splicing fitness (ln) recorded for GAGCAGCAAUAUUACGGCGA
A. -0.604

Q. Note down self-splicing fitness (ln) recorded for AAGUAGCAAUAUUACGACAG
A. -1.66

Q. Note down self-splicing fitness (ln) recorded for GAGAAGCAAUAUUACGUUGA
A. -1.19

Q. Note down self-splicing fitness (ln) recorded for UCGGAGCAAUAUUACGCUUU
A. -2.3

Q. Note down self-splicing fitness (ln) recorded for GCCGAGCAAUAUUACGACUA
A. -2.21

Q. Note down self-splicing fitness (ln) recorded for GAGUAGCAAUAUUACGAUUU
A. -0.312

Q. Note down self-splicing fitness (ln) recorded for AGGGAGCAAUAUUACGUGCA
A. -2.5

Q. Note down self-splicing fitness (ln) recorded for AGCCAGCAAUAUUACGUCGC
A. -2.74

Q. Note down self-splicing fitness (ln) recorded for ACUAAGCAAUAUUACGUGAA
A. -0.939

Q. Note down self-splicing fitness (ln) recorded for AUUAAGCAAUAUUACGGCCU
A. -0.318

Q. Note down self-splicing fitness (ln) recorded for CAAGAGCAAUAUUACGUAAG
A. -0.217

Q. Note down self-splicing fitness (ln) recorded for CAUAAGCAAUAUUACGUCCA
A. -1.87

* * *

Would you mind telling me the reported self-splicing fitness (ln) of each entry?
# test description: self-splicing fitness, log relative to wild type (ln ratio); higher = more splicing; Tetrahymena group I intron in knt gene, E. coli kanamycin selection, DiMSum; sequences stand for … in CUCUCU…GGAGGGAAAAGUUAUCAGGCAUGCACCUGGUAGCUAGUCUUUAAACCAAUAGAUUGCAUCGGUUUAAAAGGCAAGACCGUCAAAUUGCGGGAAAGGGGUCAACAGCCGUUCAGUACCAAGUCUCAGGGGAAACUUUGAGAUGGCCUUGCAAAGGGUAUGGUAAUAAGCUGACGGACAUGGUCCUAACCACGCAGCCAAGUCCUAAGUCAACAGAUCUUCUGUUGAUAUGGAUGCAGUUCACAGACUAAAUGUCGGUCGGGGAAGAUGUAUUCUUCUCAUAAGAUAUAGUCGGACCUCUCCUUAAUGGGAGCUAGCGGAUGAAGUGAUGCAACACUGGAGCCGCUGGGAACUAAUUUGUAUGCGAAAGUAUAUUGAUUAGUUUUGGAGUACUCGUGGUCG
# experimental conditions: 30 °C
Just the number, please.

Q. Note down self-splicing fitness (ln) recorded for CGGCAGCAAUAUUACGGGUU
A. -4.26

Q. Note down self-splicing fitness (ln) recorded for AUACAGCAAUAUUACGAUGA
A. -1.42

Q. Note down self-splicing fitness (ln) recorded for AGGUAGCAAUAUUACGUAUA
A. -2.6

Q. Note down self-splicing fitness (ln) recorded for UCGAAGCAAUAUUACGAACA
A. -0.799

Q. Note down self-splicing fitness (ln) recorded for UGUGAGCAAUAUUACGAAUA
A. -3.54

Q. Note down self-splicing fitness (ln) recorded for ACCUAGCAAUAUUACGACAU
A. -0.784

Q. Note down self-splicing fitness (ln) recorded for UGGUAGCAAUAUUACGCUGG
A. -2.08

Q. Note down self-splicing fitness (ln) recorded for GGAAAGCAAUAUUACGUGAA
A. -1.96

Q. Note down self-splicing fitness (ln) recorded for UCUCAGCAAUAUUACGCAGC
A. -3.54

Q. Note down self-splicing fitness (ln) recorded for GAGAAGCAAUAUUACGAGGG
A. -3.49

Q. Note down self-splicing fitness (ln) recorded for GUGAAGCAAUAUUACGUCUA
A. 0.147

Q. Note down self-splicing fitness (ln) recorded for AUAAAGCAAUAUUACGCGAG
A. -1.08

Q. Note down self-splicing fitness (ln) recorded for AGUUAGCAAUAUUACGCUGA
A. -3.13

Q. Note down self-splicing fitness (ln) recorded for GGCCAGCAAUAUUACGGAAC
A. -0.685

Q. Note down self-splicing fitness (ln) recorded for AGAUAGCAAUAUUACGCUUA
A. -0.901

Q. Note down self-splicing fitness (ln) recorded for GCUGAGCAAUAUUACGACAU
A. -2.27

Q. Note down self-splicing fitness (ln) recorded for AUUGAGCAAUAUUACGUAGG
A. -3.16

Q. Note down self-splicing fitness (ln) recorded for ACCUAGCAAUAUUACGGGAA
A. -1.62

Q. Note down self-splicing fitness (ln) recorded for UGUAAGCAAUAUUACGCGUA
A. -0.832

Q. Note down self-splicing fitness (ln) recorded for UAUAAGCAAUAUUACGCUGA
A. -1.96

Q. Note down self-splicing fitness (ln) recorded for ACCUAGCAAUAUUACGGGCU
A. -1.51

Q. Note down self-splicing fitness (ln) recorded for UCCCAGCAAUAUUACGAGGU
A. -1.76

Q. Note down self-splicing fitness (ln) recorded for GCCAAGCAAUAUUACGUAAG
A. -1.37

Q. Note down self-splicing fitness (ln) recorded for UAUUAGCAAUAUUACGUUUA
A. -1.6

Q. Note down self-splicing fitness (ln) recorded for GACAAGCAAUAUUACGAUAA
A. -1.68

Q. Note down self-splicing fitness (ln) recorded for CGCCAGCAAUAUUACGGCCA
A. -0.294

Q. Note down self-splicing fitness (ln) recorded for GAUAAGCAAUAUUACGAAAU
A. -1.13

Q. Note down self-splicing fitness (ln) recorded for GACUAGCAAUAUUACGACUA
A. -1.04

Q. Note down self-splicing fitness (ln) recorded for CUAGAGCAAUAUUACGGUUU
A. -4.03

Q. Note down self-splicing fitness (ln) recorded for CAGGAGCAAUAUUACGGCGA
A. -2.73

Q. Note down self-splicing fitness (ln) recorded for AACUAGCAAUAUUACGGGCA
A. -0.872

Q. Note down self-splicing fitness (ln) recorded for CGAUAGCAAUAUUACGCUAG
A. -1.18

Q. Note down self-splicing fitness (ln) recorded for GAAAAGCAAUAUUACGAUGU
A. -1.07

Q. Note down self-splicing fitness (ln) recorded for UGACAGCAAUAUUACGCUAC
A. -2.24

Q. Note down self-splicing fitness (ln) recorded for UACGAGCAAUAUUACGUAAA
A. -3.61

Q. Note down self-splicing fitness (ln) recorded for UUUCAGCAAUAUUACGUGCA
A. -0.77

Q. Note down self-splicing fitness (ln) recorded for AAUCAGCAAUAUUACGUCGA
A. -0.548

Q. Note down self-splicing fitness (ln) recorded for CUUAAGCAAUAUUACGGCAC
A. -3.43

Q. Note down self-splicing fitness (ln) recorded for GACUAGCAAUAUUACGUCCA
A. -2.24

Q. Note down self-splicing fitness (ln) recorded for GGGGAGCAAUAUUACGCUGC
A. -2.22

Q. Note down self-splicing fitness (ln) recorded for AGCGAGCAAUAUUACGAGCU
A. -3.17

Q. Note down self-splicing fitness (ln) recorded for GACGAGCAAUAUUACGCGCC
A. -2.74

Q. Note down self-splicing fitness (ln) recorded for GGAUAGCAAUAUUACGAAGG
A. -2.12

Q. Note down self-splicing fitness (ln) recorded for CCAAAGCAAUAUUACGUAUA
A. -4.79

Q. Note down self-splicing fitness (ln) recorded for GAUAAGCAAUAUUACGAAGG
A. -2.27

Q. Note down self-splicing fitness (ln) recorded for UGGAAGCAAUAUUACGAACG
A. -0.465
